Data provenance is ChEMBL document CHEMBL5113418.

- Test system: MV4-11
- assaySummary: Antiproliferative activity against human MV4-11 cells assessed as cell growth inhibition incubated for 72 hrs by MTT assay
- Assay type: functional, cell-based
- setupConditions: MV4-11, 72 h

# compound, IC50
records = [
    ("CCN(c1cc(-c2ccc(CN3CCOCC3)cc2)cc(C(=O)NCc2c(C)cc(C)[nH]c2=O)c1C)C1CCOCC1", "> 40 µM"),
    ("CC[C@H](C)n1cc(C)c2c(C(=O)NCc3c(C)cc(C)[nH]c3=O)cc(-c3ccc(N4CCN(C(=O)CCCCCCCCc5cn(CCOCCOCCOCCOCCOCCOCCNc6cccc7c6C(=O)N(C6CCC(=O)NC6=O)C7=O)nn5)CC4)nc3)cc21 (some centres undefined)", "1.02 µM"),
    ("Cc1cc(C)c(CNC(=O)c2cc(-c3ccc(N4CCN(C(=O)CCCCCCCCc5cn(CCOCCOCCOCCOCCOCCOCCNc6cccc7c6C(=O)N(C6CCC(=O)NC6=O)C7=O)nn5)CC4)nc3)cc3c2cnn3C(C)C)c(=O)[nH]1 (centres undefined)", "0.74 µM"),
    ("CC[C@H](C)n1cc(C)c2c(C(=O)NCc3c(C)cc(C)[nH]c3=O)cc(-c3ccc(N4CCNCC4)nc3)cc21", "7.34 µM"),
]

====

- Organism: Homo sapiens
- assaySummary: Binding affinity to recombinant PRC2 complex (unknown origin) assessed as association rate constant by surface plasmon resonance assay
Ka overview
metricName: Ka

# molecule, result
data = [
    ("CC[C@H](C)n1cc(C)c2c(C(=O)NCc3c(C)cc(C)[nH]c3=O)cc(-c3ccc(N4CCN(C(=O)CCCCCCCCc5cn(CCOCCOCCOCCOCCOCCOCCNc6cccc7c6C(=O)N(C6CCC(=O)NC6=O)C7=O)nn5)CC4)nc3)cc21 (some centres undefined)", "2.6 10^6/Ms"),
    ("CCN(c1cc(-c2ccc(CN3CCOCC3)cc2)cc(C(=O)NCc2c(C)cc(C)[nH]c2=O)c1C)C1CCOCC1", "5.66 10^6/Ms"),
    ("Cc1cc(C)c(CNC(=O)c2cc(-c3ccc(N4CCN(C(=O)CCCCCCCCc5cn(CCOCCOCCOCCOCCOCCOCCNc6cccc7c6C(=O)N(C6CCC(=O)NC6=O)C7=O)nn5)CC4)nc3)cc3c2cnn3C(C)C)c(=O)[nH]1 (centres undefined)", "5.7 10^6/Ms"),
    ("CC[C@H](C)n1cc(C)c2c(C(=O)NCc3c(C)cc(C)[nH]c3=O)cc(-c3ccc(N4CCNCC4)nc3)cc21", "1.91 10^6/Ms"),
]

====

- Tested on: MDA-MB-231
- assaySummary: Antiproliferative activity against human MDA-MB-231 cells assessed as cell growth inhibition incubated for 72 hrs by MTT assay
- Format: functional, cell-based
- setupConditions: MDA-MB-231, 72 h
pIC50: −log10 of the molar value.
metricName: pIC50

# compound, relationalOperator, quantitativeReadout
data = [
    ("Cc1cc(C)c(CNC(=O)c2cc(-c3ccc(N4CCN(C(=O)CCCCCc5cn(CCOCCOCCOCCOCCOCCNc6cccc7c6C(=O)N(C6CCC(=O)NC6=O)C7=O)nn5)CC4)nc3)cc3c2cnn3C(C)C)c(=O)[nH]1 (stereo not given)", "=", 4.79),
    ("CCN(c1cc(-c2ccc(CN3CCOCC3)cc2)cc(C(=O)NCc2c(C)cc(C)[nH]c2=O)c1C)C1CCOCC1", "<", 4.40),
    ("Cc1cc(C)c(CNC(=O)c2cc(-c3ccc(N4CCN(C(=O)CCCCCn5cc(CCCCCC(=O)N[C@@H](C(=O)N6C[C@H](O)C[C@H]6C(=O)NCc6ccc(-c7scnc7C)cc6)C(C)(C)C)nn5)CC4)nc3)cc3c2cnn3C(C)C)c(=O)[nH]1", "=", 4.58),
    ("CC[C@H](C)n1cc(C)c2c(C(=O)NCc3c(C)cc(C)[nH]c3=O)cc(-c3ccc(N4CCN(C(=O)CCCCCCCCc5cn(CCOCCOCCOCCOCCOCCOCCNc6cccc7c6C(=O)N(C6CCC(=O)NC6=O)C7=O)nn5)CC4)nc3)cc21 (stereo not given in full)", "=", 6.19),
    ("Cc1cc(C)c(CNC(=O)c2cc(-c3ccc(N4CCNCC4)nc3)cc3c2cnn3C(C)C)c(=O)[nH]1", "<", 4.40),
]
